target desc: MMP2 (Homo sapiens)
Sequence (P08253 110-660): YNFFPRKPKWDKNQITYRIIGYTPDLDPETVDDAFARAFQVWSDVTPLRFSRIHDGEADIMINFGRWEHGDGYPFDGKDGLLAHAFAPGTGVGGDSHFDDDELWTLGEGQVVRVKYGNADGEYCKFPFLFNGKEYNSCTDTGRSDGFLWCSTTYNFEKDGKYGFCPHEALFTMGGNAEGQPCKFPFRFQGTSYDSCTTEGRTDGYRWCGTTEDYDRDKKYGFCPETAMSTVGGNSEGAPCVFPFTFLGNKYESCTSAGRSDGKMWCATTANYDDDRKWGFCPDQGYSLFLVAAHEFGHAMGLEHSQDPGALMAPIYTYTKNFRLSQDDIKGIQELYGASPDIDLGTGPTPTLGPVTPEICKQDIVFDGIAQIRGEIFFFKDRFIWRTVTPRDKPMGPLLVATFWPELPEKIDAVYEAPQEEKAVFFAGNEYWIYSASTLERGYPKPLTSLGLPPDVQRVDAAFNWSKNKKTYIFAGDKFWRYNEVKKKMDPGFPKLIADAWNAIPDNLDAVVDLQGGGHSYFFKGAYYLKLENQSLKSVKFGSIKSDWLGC
test protocol: Internally quenched peptide probe cleavage assay (Example 8)
Format: biochemical
cond: 20 μM peptide probe, 20 nM protease, 37° C.
Ends that are not written are not given here.
observed property: Probe Cleavage (pM/s) MMP2
Report as: number unit

The examples below pair each entry with its known result.
- substance: "RSPWGL [tested as internally quenched peptide probe]"
  Probe Cleavage (pM/s) MMP2: "11700 pM/s"
- substance: "PMGLKS (also: internally quenched fluorophore/quencher probe, groups not placed) [CM 7018, tested as internally quenched peptide probe]"
  Probe Cleavage (pM/s) MMP2: "119000 pM/s"
- substance: "PWGLRS [tested as internally quenched peptide probe]"
  Probe Cleavage (pM/s) MMP2: "3800 pM/s"

Would you kindly look at the next entry?
Request: For APMGLKH [CM 7046, also tested as internally quenched peptide probe] , what is its reported Probe Cleavage (pM/s) MMP2?
Response: 81700 pM/s

###

target desc: MT-SP1 (Homo sapiens, UniProt Q9Y5Y6)
Sequence (Q9Y5Y6 615-855 limits assumed): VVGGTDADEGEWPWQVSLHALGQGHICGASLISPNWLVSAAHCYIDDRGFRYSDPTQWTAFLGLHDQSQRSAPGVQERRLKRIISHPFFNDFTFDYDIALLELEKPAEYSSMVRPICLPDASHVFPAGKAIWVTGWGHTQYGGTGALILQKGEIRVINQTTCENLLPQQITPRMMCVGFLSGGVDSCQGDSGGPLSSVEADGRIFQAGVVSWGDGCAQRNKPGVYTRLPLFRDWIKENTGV
test protocol: Internally quenched peptide probe cleavage assay (Example 8)
Format: biochemical
cond: 20 μM peptide probe, 20 nM protease, 37° C.
Ends that are not written are not given here.
observed property: Probe Cleavage (pM/s) MT-SP1
Supply the numeric figure in pM/s, leaving out any unit text.

The examples below pair each entry with its known result.
- substance: "PWGLRS [tested as internally quenched peptide probe]"
  Probe Cleavage (pM/s) MT-SP1: 1230
- substance: "APMGLKH [CM 7046, also tested as internally quenched peptide probe]"
  Probe Cleavage (pM/s) MT-SP1: 3330
- substance: "RSPWGL [tested as internally quenched peptide probe]"
  Probe Cleavage (pM/s) MT-SP1: 2390

Would you kindly look at the next entry?
Request: For PMGLKS (also: internally quenched fluorophore/quencher probe, groups not placed) [CM 7018, tested as internally quenched peptide probe] , what is its reported Probe Cleavage (pM/s) MT-SP1?
Response: 14100

The measured values listed here are drawn from patent US20260042849A1.
